Data credit: PubChem BioAssay (NCATS)

Assay Summary: Cellular Toxicity (caspase-3) SHSY5Y (AID 657);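 further: cells exposed to compound for 16 hours at 37 °C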
Conditions Used: SH-SY5Y caspase-3 activation; series mostly up to 91.7 µM
Activity calls are given as the source filed them. The call rests on the fitted dose curve; in most records, active means well fitted activation curve with a large enough effect; inconclusive means small, poorly fitted or top-dose-only effect; inactive means flat fitted curve, though single readings scatter.

# Sample Smiles, outcome
measured = [
    ("Nc1ccccc1C(=O)OCCc1ccccc1", "inactive"),
    ("OC(c1ccc(Cl)cc1)(c1ccc(Cl)cc1)C(Cl)(Cl)Cl", "inactive"),
    ("O=[N+]([O-])c1cc(C(F)(F)F)cc([N+](=O)[O-])c1Cl", "inactive"),
    ("FC(F)(F)c1ccc(Cl)cc1", "inactive"),
    ("CCCCCCCCn1sccc1=O", "inactive"),
    ("[Cd+2].[Cl-].[Cl-]", "inactive"),
    ("N#CC(Cl)Cl", "inactive"),
]

====

Test system: CP335
Assay Summary: qHTS profiling for inhibitors of Plasmodium falciparum proliferation (AID 504749); further: nearly all actives have a fitted effect of over 60% in size
Conditions Used: P. falciparum in erythrocytes, SYBR Green DNA, 72 h; series mostly up to 28.7 µM
Records with an inconclusive call do not appear. Active and inactive are the calls of the source. Calls follow the shape of the dose curve; as a rule, active = well fitted inhibition curve with a large enough effect; inconclusive = small, poorly fitted or top-dose-only effect; inactive = flat fitted curve, though single readings scatter.
Labels: y for active, n for inactive

# Compound, Class
rows = [
    ("Nc1nc(O)c(-c2ccccc2)o1", "n"),
    ("C[C@]12CCC3C(CCC4=C(Cl)C(=O)CC[C@@]43C)C1CCC2O (stereo not given in full)", "n"),
    ("COc1ccc2c3c1O[C@H]1[C@@H](O)C=C[C@H]4C(C2)NCCC341 (stereo not given in full)", "n"),
    ("CCOC(=O)c1cncn1[C@@H](C)c1ccccc1", "n"),
    ("CC1OC(O[C@H]2C[C@@H](O)[C@]3(CO)[C@@H]4C(CC[C@]3(O)C2)[C@@]2(O)CC[C@H](C3=CC(=O)OC3)[C@@]2(C)C[C@H]4O)C(O)C(O)C1O (stereo not given in full)", "n"),
    ("CCCCCCC(=O)O[C@H]1CC[C@H]2[C@@H]3CCC4CC(=O)C=C(C)[C@]4(C)[C@H]3CC[C@]12C (stereo not given in full)", "y"),
    ("CCCC(C)C1(CC)C(=O)NC(=S)NC1=O (stereo not given)", "n"),
    ("O=[N+]([O-])OC1CO[C@H]2C(O[N+](=O)[O-])COC12 (stereo not given in full)", "n"),
    ("C=CC[C@]1(O)CCC2C3CCC4=CCCCC4C3CCC21C (stereo not given in full)", "n"),
    ("C[C@@H](N)[C@@H](O)c1ccc(O)c(O)c1", "n"),
]

====

Assay Summary: Cell Viability - SK-N-SH (AID 435);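 further: potency means the concentration at half of the fitted maximal effect; compound exposure lasted 40 h at 37 °C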
Conditions Used: SK-N-SH neuroblastoma cell viability qHTS
Records with an inconclusive call do not appear. Activity calls are given as the source filed them. Calls come from the whole dose curve.
Labels: active, inactive

# Sample Smiles, Class
data = [
    ("O=C(CCl)c1ccccc1", "active"),
    ("Oc1c(Cl)cc(Cl)cc1Cl", "inactive"),
    ("N#CC(Cl)Cl", "inactive"),
    ("Oc1c(Br)c(Br)c(Br)c(Br)c1Br", "inactive"),
    ("Cc1ccc(O)cc1C", "inactive"),
    ("N#CSCSC#N", "active"),
    ("C#CCO", "inactive"),
    ("FC(F)(F)c1ccc(Cl)cc1", "inactive"),
    ("COP(=O)(OC)O/C(=C\\Cl)c1cc(Cl)c(Cl)cc1Cl", "active"),
    ("CN(C)c1ccc(N=O)cc1", "active"),
    ("O=[N+]([O-])c1ccccc1Cl", "inactive"),
]

====

Tested on: CP211
Assay Summary: qHTS profiling for inhibitors of Plasmodium falciparum proliferation (AID 504749); further: nearly all actives have a fitted effect of over 60% in size
Conditions Used: P. falciparum in erythrocytes, SYBR Green DNA, 72 h; series mostly up to 28.7 µM
Records with an inconclusive call do not appear. Calls of active or inactive are those of the source. Calls follow the shape of the dose curve; as a rule, active = well fitted inhibition curve with a large enough effect; inconclusive = small, poorly fitted or top-dose-only effect; inactive = flat fitted curve, though single readings scatter.

# Molecule, outcome
rows = [
    ("CC(CO)NC(=O)C1C=C2c3cccc4[nH]cc(c34)CC2N(C)C1 (stereo not drawn)", "inactive"),
    ("C[C@H](N)Cc1ccccc1", "inactive"),
    ("Nc1nc(O)c(-c2ccccc2)o1", "inactive"),
]

====

Assay Summary: qHTS assay for small molecule agonists of the antioxidant response element (ARE) signaling pathway measured by Nrf2-dependant transcriptional activity - cell viability counter screen (AID 720653); further: on the % scale 0 is the no-effect control and ±100 the full control effect
Conditions Used: ARE-bla HepG2 viability, CellTiter-Glo ATP luminescence, 16 h; hits give low values
Results filed as inconclusive are left out.
Item-by-item account of max response

# Compound, max response / %
measured = [
    ("COC(=O)c1c(C(F)F)nc(C(F)(F)F)c(C2=NCCS2)c1CC(C)C", 1.66),
    ("CCOc1cc(C(C)(C)C)ccc1C1COC(c2c(F)cccc2F)=N1 (stereo not drawn)", -8.55),
    ("Nc1c(Cl)c(F)nc(OCC(=O)O)c1Cl", 1.18),
    ("C#CC(C)(C)NC(=O)c1cc(Cl)cc(Cl)c1", 4.89),
    ("O=S(=O)(c1ccc(O)cc1)c1ccc(O)cc1", -5.42),
    ("CC(Oc1ccc(Cl)cc1Cl)C(=O)O (stereo not drawn)", 8.84),
    ("Cc1cc(C)nc(Nc2ccccc2)n1", -4.46),
    ("CCCCC(CC)COC(=O)Cl (stereo not drawn)", -0.503),
    ("Clc1ccc(-c2cc(Cl)c(Cl)cc2Cl)cc1Cl", 3.45),
    ("CC1(C)CC/C(=C\\c2ccc(Cl)cc2)C1(O)Cn1cncn1 (stereo not drawn)", -5.93),
    ("CCN(CC)c1nc(C)cc(OP(=S)(OC)OC)n1", -9.93),
    ("CCOP(=S)(Oc1cnc(C(C)(C)C)nc1)OC(C)C (stereo not drawn)", -5.89),
    ("Cc1ccn2nc(S(=O)(=O)Nc3c(F)cccc3F)nc2n1", 14.2),
]

====

System Name: Cytochrome P450 2C9 (Homo sapiens)
Assay Summary: qHTS Assay for Inhibitors and Substrates of Cytochrome P450 2C9 (AID 883); further: nearly all actives have a fitted effect of over 60% in size; further: potency means the concentration at half of the fitted maximal effect
Conditions Used: recombinant CYP2C9, luciferin-H luminescence, 60 min; series mostly up to 57.1 µM
Inconclusive results are not listed. Calls of active or inactive are those of the source. Calls come from the whole dose curve; as a rule, active = well fitted inhibition curve with a large enough effect; inconclusive = small, poorly fitted or top-dose-only effect; inactive = no such curve, though single readings can be large or run the other way.
Measured Property: Potency

# Compound, Result
measured = [
    ("CC1=CC(=O)C2=C(C)C[C@H](O)[C@@H]3[C@@H](OC(=O)[C@H]3C)[C@H]12", "inactive"),
    ("CC1=C2[C@@H]3OC(=O)[C@H](C)[C@H]3CC[C@@]2(C)C=CC1=O", "inactive"),
    ("COc1ccc(C[C@@H]2NC[C@H](O)[C@H]2OC(C)=O)cc1", "inactive"),
    ("C=C[C@@H]1CN2CC[C@@H]1C[C@H]2[C@H](O)c1ccnc2ccccc12", "inactive"),
    ("CCN1C[C@@]2(COC(=O)c3ccccc3N3C(=O)C[C@H](C)C3=O)CC[C@H](OC)[C@@]34[C@@H]5CC6[C@@H](OC)C[C@@](O)([C@H]5[C@H]6OC)C(O)([C@@H]13)[C@@H](OC)[C@H]24", "inactive"),
    ("C[C@@H](CO)NC(=O)[C@H]1C=C2c3cccc4[nH]cc(c34)C[C@H]2N(C)C1", "inactive"),
    ("CCCc1cc2c(n1Cc1cccc(Cl)c1)C(C)C1CN(C(=O)c3ccccc3)C(C)(C(=O)OC)C21 (configuration not stated)", "5.01 µM (active)"),
    ("CN1CCc2cc3c(cc2[C@@H]1[C@H]1OC(=O)c2c1ccc1c2OCO1)OCO3", "3.98 µM (active)"),
    ("COc1ccc2c(c1O)-c1c(OC)c(OC)cc3c1[C@@H](C2)N(C)CC3", "inactive"),
    ("CC(C)[C@@]1(NC(=O)[C@@H]2C[C@H]3c4cccc5[nH]cc(c45)C[C@@H]3N(C)C2)O[C@@]2(O)[C@H]3CCCN3C(=O)[C@@H](Cc3ccccc3)N2C1=O", "1.26 µM (active)"),
    ("C[C@@]12CC[C@H]3[C@@H](CCC4=CC(=O)CC[C@]43C)[C@H]1CCC2=O", "inactive"),
    ("O=c1c2ccccc2c2ccccc2c(=O)n1-c1cc2c3ccccc3ccc2c2ccccc12", "0.316 µM (active)"),
    ("COc1cc2c(cc1OC)-c1c(O)c(OC)cc3c1[C@@H](C2)N(C)CC3", "inactive"),
    ("c1cc2c(cc1[C@H]1OC[C@H]3[C@@H]1CO[C@H]3c1ccc3c(c1)OCO3)OCO2", "3.98 µM (active)"),
    ("C=C(CC1(C(C)NP(=O)(c2ccccc2)c2ccccc2)CC1)c1ccccc1 (configuration not stated)", "7.94 µM (active)"),
    ("C[C@H]1C(=O)O[C@H]2CCN3CC=C(COC(=O)[C@](C)(O)[C@@]1(C)O)[C@H]23", "inactive"),
    ("C[C@@]12CC[C@H](O)C[C@@H]1CC[C@H]1[C@H]2C[C@@H](O)[C@]2(C)[C@@H](C3=CC(=O)OC3)CC[C@@]12O", "inactive"),
]
